test system: U2OS; experiment: Incucyte cell viability with U2OS; assay type: toxicity, cell-based; conditions: human, 0 h, 10 µM, compound concentration 10 uM, replicate number 2, timepoint 0 hours; further: filed as whole numbers so only -1 and 0 and 1 occur
Assay endpoint: Growth Rate
In your answer, state the number alone without any accompanying words.

Could you please provide reported Growth Rate for Cc1oncc1C(=O)Nc1ccc(C(F)(F)F)cc1 [LEFLUNOMIDE] ? Thanks! 0

Could you please provide reported Growth Rate for CN1CCN(C(=O)C(C)(C)c2ccc(C(=O)Nc3cn4cc(-c5cc(C(C)(C)C)cc(C(C)(C)C)c5)ccc4n3)cc2)CC1 ? Thanks! 0

Could you please provide reported Growth Rate for C[C@H]1Oc2cc(cnc2N)-c2c(nn(C)c2C#N)CN(C)C(=O)c2ccc(F)cc21 ? Thanks! 1

Could you please provide reported Growth Rate for CCc1cccc(CC)c1NC(=O)c1nn(C)c2c1CCc1cnc(Nc3ccc(C(=O)NC4CCN(C)CC4)cc3OC(F)(F)F)nc1-2 ? Thanks! 0

Could you please provide reported Growth Rate for CCn1c(=O)c(-c2ccc(-c3cncs3)cc2Cl)cc2cnc(Nc3ccc(N4CCN(C)CC4)cc3)nc21 ? Thanks! 1

Could you please provide reported Growth Rate for CO[C@@H](C)c1c(Nc2ccc([C@@H](N(C)C(=O)C3CCS(=O)(=O)CC3)C(F)(F)F)cc2)cnc2cc(Cl)nn12 ? Thanks! 1

Could you please provide reported Growth Rate for COc1ccc(S(=O)(=O)N(CCO)c2ccccc2CN(C)C/C=C/c2ccc(Cl)cc2)cc1.O=P(O)(O)O ? Thanks! 1

Could you please provide reported Growth Rate for CC(=O)N1CCC(c2ccc(C(=O)NC(=N)N)cc2C(F)(F)F)CC1 ? Thanks! 0

Could you please provide reported Growth Rate for Cc1nc(-c2ccc(C(F)(F)F)cc2)sc1COc1ccc([C@H](CC(=O)O)c2ccon2)cc1 ? Thanks! 0

Could you please provide reported Growth Rate for Cc1c(NC(=O)c2cc(C(N)=O)nc3cc(F)ccc23)c(C(F)(F)F)nn1Cc1ccc(C#N)cc1 ? Thanks! 0

Could you please provide reported Growth Rate for Cc1c(NC(=O)c2cc(C(N)=O)nc3cc(F)ccc23)c(C(F)(F)F)nn1Cc1ccc(C(C)(C)C)cc1 ? Thanks! 0

Could you please provide reported Growth Rate for FC(F)(F)c1cccc(-c2noc(-c3cc(-c4ccccc4)c(C(F)(F)F)s3)n2)c1 ? Thanks! 0

Could you please provide reported Growth Rate for CNC(=O)c1ccccc1Nc1cc(Nc2ccc(N3CCOCC3)cc2OC)ncc1C(F)(F)F ? Thanks! 0

Could you please provide reported Growth Rate for OCCn1cc(-c2cnc3nnn(Cc4ccc5ncccc5c4)c3n2)cn1 ? Thanks! 0

Could you please provide reported Growth Rate for CC(=O)c1c(NS(C)(=O)=O)c2cc(-c3ccc(Cl)cc3)c(-c3ccc(Cl)cc3Cl)nc2n(C)c1=O ? Thanks! 1

Could you please provide reported Growth Rate for Nc1cc(F)ccc1NC(=O)/C=C/c1cnn(C/C=C/c2ccccc2)c1 ? Thanks! 1

// data source = ChEMBL document CHEMBL4689842
